Where these numbers come from: PubChem BioAssay (NCI)

System: RXF 393 renal
Assay: NCI-60 one-dose screen, 48 h
Conditions: 10 µM unless noted
Compounds without any hit were thinned out: in the full panel of roughly 83,000, 20% have a hit. The source made the active and inactive calls. The calls were made as follows: active = growth percent below 10; inactive = the rest.
Write down the outcome that applies. Available outcomes: Y for active, N for inactive

Request: Entry COc1ccc(NC(=O)Nc2ccc(OCCCCCC(=O)NO)cc2)cc1 : call = ?
Response: N

Request: Call for entry O=C1c2ccccc2C(=O)c2c1cc1c(c2[N+](=O)[O-])OCO1 :
Response: Y

Request: Answer briefly: the call reported for N#C/C(=C\c1cn(Cc2ccccc2)c2ccccc12)C(=O)Nc1ncc(Cc2ccccc2Cl)s1 in this assay.
Response: N

Request: Please state the recorded outcome for this compound: Cc1ccc2c(-c3nnc(N)s3)cc(=O)oc2c1C
Response: N

Request: Which outcome was entered for the compound O=C1/C(=C2\SC(=S)N(C3CC3)C2=O)SC(=S)N1C1CC1 in this test?
Response: N

Request: What is the recorded call for this compound in the test? CN1CCN(CC(=O)Nc2ccc3ncnc(Nc4ccc(Oc5cccc(C(F)(F)F)c5)c(Cl)c4)c3c2)CC1
Response: Y

Request: For this compound, state the assay outcome: NC(=O)c1cccc([C@@H]2O[C@H](CO)[C@@H](O)[C@H]2O)c1
Response: N

Request: Could you kindly confirm the outcome this assay logged for O=C1C(Nc2ccccn2)=C(I)C(=O)c2ncccc21 ?
Response: Y

Request: What did this assay record as the result for COc1cccc(/C=C/C(=O)c2cccc(Nc3nc(Nc4ccccc4)nc(Nc4ccccc4)n3)c2)c1 ?
Response: Y

Request: # outcome recorded in this test, key = CC1CCN(C(=O)CCCl)c2ccccc21 (centres undefined)
Response: N

Request: Dear colleague, could you share the recorded outcome for COc1cccc(NCc2nnc(Nc3ccc(Cl)cc3)c3ccccc23)c1 when you have a moment?
Response: Y

Request: How was N#CC1CCc2c(c(-c3ccc4nc(N)sc4c3)nc3ccc4[nH]ncc4c23)C1 (centres undefined) classified in this test?
Response: Y

Request: Kindly provide the recorded test outcome for the following compound: C=C(C)[C@@H]1CC[C@]2(C(N)=O)CC[C@]3(C)[C@H](CC[C@@H]4[C@@]5(C)CC[C@H](OCCC#N)C(C)(C)[C@@H]5CC[C@]43C)[C@@H]12
Response: N

Request: Just curious, what result did COc1ccc(-c2cc(-c3ccccc3)nc(N3CCN(CCNc4ccnc5cc(Cl)ccc45)CC3)n2)cc1 get here?
Response: Y

----------
System: BT-549 breast
Experiment: NCI-60 one-dose screen, 48 h
Conditions: 10 µM unless noted
The panel holds about 83,000 compounds, 20% with a hit somewhere; the sample as a whole holds those more often. Active and inactive are the calls of the source. How the source made its calls: active means growth percent below 10; inactive means the rest.
Respond using exactly one of the listed classes: T (active), F (inactive)

Request: Short answer needed: outcome of this test for Cc1ccc(/C=C/C(=O)c2cccc(OCCCOc3cccc(C(=O)/C=C/c4ccc(C)cc4)c3)c2)cc1 ?
Response: F

Request: Given O=C(Nc1cc(Cl)ccc1O)c1cccc(Nc2ccnc(C(F)(F)F)c2)c1 , state the outcome it received in this test.
Response: F

Request: Give the logged outcome of this assay for the following molecule: CC(C)=CCNc1ncnc2c1ncn2C1OC(CO)C(O)C1O (centres undefined)
Response: T

Request: Hi team, can someone confirm the assay call for CN1CCN(CC(=O)Nc2ccc3ncnc(Nc4ccc(Oc5cccc(C(F)(F)F)c5)c(Cl)c4)c3c2)CC1 ?
Response: F

----------
Test system: MDA-MB-435 melanoma
Assay: NCI-60 one-dose screen, 48 h (100 = growth as untreated, 0 = no growth, -100 = all killed)
Details: 10 µM unless noted
About 83,000 compounds went through this panel and 20% of them were active in at least one assay; those are over-represented in the sample as a whole. The source made the active and inactive calls. The calls were made as follows: active = growth percent below 10; inactive = the rest.
Would you mind telling me the reported growth of each entry?

Request: Look at this molecule and give its reported growth. CC(C)=CCNc1ncnc2c1ncn2C1OC(CO)C(O)C1O (stereo not drawn)
Response: 23.9% [1 mM] (inactive)

Request: What value of growth has been reported for the following molecule? C[C@H](CCCC(=O)NCC#CCN1CCN(C)CC1)[C@H]1CC[C@H]2[C@@H]3CC[C@@H]4CC(=O)CC[C@]4(C)[C@H]3CC[C@]12C
Response: 95.5% (inactive)

Request: Reported growth, molecule CN(C)CCN1C(=O)c2cccc3c(/C=C/CN4C(=O)c5cccc6cccc(c56)C4=O)ccc(c23)C1=O : ____
Response: 89.3% (inactive)

----------
System: KM12 colon
Assay: NCI-60 one-dose screen, 48 h
Conditions: 10 µM unless noted
Compounds without any hit were thinned out: in the full panel of roughly 83,000, 20% have a hit. Activity calls are given as the source filed them. The calls were made as follows: active = growth percent below 10; inactive = the rest.
// classify into active, inactive

Request: Any idea what this test logged for Cc1cccc(-c2nc(Nc3ccc4ncsc4c3)c3ccccc3n2)n1 ?
Response: inactive

Request: In this assay, the call recorded for CCOC(=O)c1c(C)nc2ccccc2c1/C=C/c1ccccc1 was what?
Response: inactive

Request: Write down the call the test reported for this molecule. Item: Cc1ccc(-c2nc(-c3cn(C)c4ncccc34)cs2)cc1
Response: active

Request: Each molecule tested received a call. Report the one for CCOC(=O)/C=C1\S/C(=N\Nc2cc(=O)[nH]c3ccccc23)N(c2ccccc2)C1=O .
Response: inactive

Request: Please let me know the test result on file for CCc1n(Cc2ccc3ccccc3n2)cc[n+]1Cc1ccc2ccccc2n1 .
Response: inactive

Request: Just curious, what result did Nc1nc(N)c2c(n1)NC(c1cccc(Nc3ccnc4cc(C(F)(F)F)ccc34)c1)CC(c1ccccc1)=N2 (stereo not given) get here?
Response: inactive

Request: What outcome does the record of this test show for CCC1S/C(=N\N=C(\C)c2cc3cc(Cl)ccc3o2)N(c2ccccc2)C1=O (stereo not given) ?
Response: inactive

Request: Given CNC(C)[C@H]1CCC2C3CC=C4C(=O)[C@@H](NC(=O)C=C(C)C)CC[C@]4(C)C3CC[C@@]21C (stereo not given in full) , state the outcome it received in this test.
Response: inactive

Request: // return assay outcome for CC(=C(c1ccc(OCCN2CCCCC2)cc1)c1ccc(OCCN2CCCCC2)cc1)c1ccc(Cl)cc1
Response: active

Request: GET /call?item= CN(CCCNC(=O)CCOCCOCCOCCNC(=O)Cc1ccc2ccc3cccc4ccc1c2c34)CCCNc1cc(-c2ccc3ccccc3c2)nc2ccccc12 returns the recorded outcome of this test.
Response: active

----------
System: EKVX NSCLC
Experiment: NCI-60 one-dose screen, 48 h (100 = growth as untreated, 0 = no growth, -100 = all killed)
Settings: 10 µM unless noted
The panel holds about 83,000 compounds, 20% with a hit somewhere; the sample as a whole holds those more often. Activity calls are given as the source filed them. Rule for the calls: active = growth percent below 10; inactive = the rest.
observationType: growth

Request: Look up growth for this compound: O=P(O)(O)OCC1OC(n2cnc3c(NCc4ccco4)ncnc32)C(O)C1O (centres undefined)
Response: 48.6% (inactive)

Request: # growth lookup, item Cc1ccc2c(-n3nc(C#N)c(C#N)c3N)cc(=O)[nH]c2c1
Response: 67.9% (inactive)

Request: Give its growth value. Item: c1ccc(CCNc2c3ccccc3nc3ccccc23)cc1
Response: 36.3% (inactive)

Request: Given CC1(C)C(N)=Nc2cc(OCCCN3Cc4ccccc4C3)c(OCC3CC3)cc21 , state its recorded growth.
Response: 77.6% (inactive)

----------
Test system: MDA-MB-231 breast
Experiment: NCI-60 one-dose screen, 48 h (100 = growth as untreated, 0 = no growth, -100 = all killed)
Conditions: 10 µM unless noted
The panel holds about 83,000 compounds, 20% with a hit somewhere; the sample as a whole holds those more often. The source made the active and inactive calls. How the source made its calls: active means growth percent below 10; inactive means the rest.
observationType: growth

Request: Need growth, item O=C(CCl)NNc1nccc(Nc2ccc(S(=O)(=O)Nc3ccncc3)cc2)n1
Response: 46.7% (inactive)

Request: Need growth, item CCCCCCCCCCCCCCCCCC1=NC(C)(C)CN1CC(C)O (stereo unspecified)
Response: -9.03% (active)

Request: # query: growth of entry CC1(C)CC[C@]23CC[C@]4(C)[C@H](CC[C@@H]5[C@@]6(C)C/C(=C/c7ccncc7)C(=O)C(C)(C)[C@@H]6CC[C@]54C)[C@H]2[C@H]1OC3
Response: 65.5% (inactive)

Request: What growth value was documented for this compound, Oc1c(CN2CCOCC2)cc(COCc2ccccc2)c2cccnc12 ?
Response: 43.1% (inactive)

Request: For the compound shown here, Cc1ccc2nc(NC(=O)CSc3nc(-c4ccccc4)c(C#N)c4nnnn34)sc2c1 , give the reported growth.
Response: 113% (inactive)

Request: Consider the compound shown here: COc1cccc(CNc2c3ccccc3nc3ccccc23)c1 What is its recorded growth?
Response: 49.9% (inactive)

Request: Which value of growth has been reported for Cc1ccc(N2C(=O)CCC2=O)cc1 in the records?
Response: 93.7% (inactive)

Request: Please report the recorded growth for Cc1nc2ccccc2c(/C=C/c2ccccc2)c1C(=O)/C=C/c1ccccc1 .
Response: 29.8% (inactive)

Request: Find the recorded growth belonging to Cc1ccc2c(-c3nnc(N)s3)cc(=O)oc2c1C and report it.
Response: 96.5% (inactive)

Request: I would be grateful if you could share the reported growth for O=C(NNc1cnccn1)c1nc2cc(F)ccc2n2cccc12 .
Response: 27.5% (inactive)

Request: // returns reported growth for input CCOC(=O)C1=C(C)/C(=C\c2[nH]c(C)c(C(=O)OCC)c2C)N=C1C
Response: 82.8% (inactive)
